# System name: T1, human IL-6 (human, UniProt P05231 30-212)
# T1 construct: also called interleukin-6
# T1 sequence (P05231 30-212 limits assumed): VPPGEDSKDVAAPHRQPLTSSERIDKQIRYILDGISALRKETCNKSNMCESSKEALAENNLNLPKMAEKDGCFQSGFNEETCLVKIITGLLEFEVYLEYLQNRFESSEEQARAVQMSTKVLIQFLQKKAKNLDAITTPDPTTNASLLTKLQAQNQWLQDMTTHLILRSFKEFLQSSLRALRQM
# Measurement notes: SPR (Biacore T200), antibody from cell supernatant captured on Protein A, IL-6 flowed over, 37 C
Property measured: kon (M⁻¹ s⁻¹)
Give bare numbers, in M⁻¹ s⁻¹.

Binder	Property measured	Recorded value
anti-IL-6 antibody, heavy chain T65D, G66D / light chain WT (antibody, human IgG1, V domains shown, Derived as m2; Engineered human IgG1) VH: EVQLVESGGGLVQPGGSLRLSCAASGFTFSPFAMSWVRQAPGKGLEWVAKISPGGSWTYYSDTVDDRFTFSLDTSKSTAYLQMNSLRAEDTAVYYCARQLWGYYALDIWGQGTLVTVSS VL: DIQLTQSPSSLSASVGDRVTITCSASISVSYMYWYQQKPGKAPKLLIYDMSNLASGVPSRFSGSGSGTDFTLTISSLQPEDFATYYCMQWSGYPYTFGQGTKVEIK	kon	2.18e+06

Required: kon, one value per binder below.
1. anti-IL-6 antibody, heavy chain I51H, G66D / light chain WT (antibody, human IgG1, V domains shown, Derived as m2; Engineered human IgG1) VH: EVQLVESGGGLVQPGGSLRLSCAASGFTFSPFAMSWVRQAPGKGLEWVAKHSPGGSWTYYSDTVTDRFTFSLDTSKSTAYLQMNSLRAEDTAVYYCARQLWGYYALDIWGQGTLVTVSS VL: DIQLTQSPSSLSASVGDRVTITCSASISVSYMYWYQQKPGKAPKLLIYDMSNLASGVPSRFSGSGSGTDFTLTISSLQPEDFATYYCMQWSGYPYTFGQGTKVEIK
2. anti-IL-6 antibody, heavy chain S35G, G66D / light chain WT (antibody, human IgG1, V domains shown, Derived as m2; Engineered human IgG1) VH: EVQLVESGGGLVQPGGSLRLSCAASGFTFSPFAMGWVRQAPGKGLEWVAKISPGGSWTYYSDTVTDRFTFSLDTSKSTAYLQMNSLRAEDTAVYYCARQLWGYYALDIWGQGTLVTVSS VL: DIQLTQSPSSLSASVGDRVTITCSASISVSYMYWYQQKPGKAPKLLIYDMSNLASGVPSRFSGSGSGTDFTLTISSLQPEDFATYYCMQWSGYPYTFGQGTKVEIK
3. anti-IL-6 antibody, heavy chain I51W, G66D / light chain WT (antibody, human IgG1, V domains shown, Derived as m2; Engineered human IgG1) VH: EVQLVESGGGLVQPGGSLRLSCAASGFTFSPFAMSWVRQAPGKGLEWVAKWSPGGSWTYYSDTVTDRFTFSLDTSKSTAYLQMNSLRAEDTAVYYCARQLWGYYALDIWGQGTLVTVSS VL: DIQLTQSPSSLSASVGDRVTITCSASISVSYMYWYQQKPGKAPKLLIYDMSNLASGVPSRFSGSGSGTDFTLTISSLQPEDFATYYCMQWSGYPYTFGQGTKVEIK
4. anti-IL-6 antibody, heavy chain T63R, G66D / light chain WT (antibody, human IgG1, V domains shown, Derived as m2; Engineered human IgG1) VH: EVQLVESGGGLVQPGGSLRLSCAASGFTFSPFAMSWVRQAPGKGLEWVAKISPGGSWTYYSDRVTDRFTFSLDTSKSTAYLQMNSLRAEDTAVYYCARQLWGYYALDIWGQGTLVTVSS VL: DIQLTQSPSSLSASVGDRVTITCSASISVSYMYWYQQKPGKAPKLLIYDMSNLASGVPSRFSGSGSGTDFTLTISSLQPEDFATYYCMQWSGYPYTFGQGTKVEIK
5. anti-IL-6 antibody, heavy chain T65H, G66D / light chain WT (antibody, human IgG1, V domains shown, Derived as m2; Engineered human IgG1) VH: EVQLVESGGGLVQPGGSLRLSCAASGFTFSPFAMSWVRQAPGKGLEWVAKISPGGSWTYYSDTVHDRFTFSLDTSKSTAYLQMNSLRAEDTAVYYCARQLWGYYALDIWGQGTLVTVSS VL: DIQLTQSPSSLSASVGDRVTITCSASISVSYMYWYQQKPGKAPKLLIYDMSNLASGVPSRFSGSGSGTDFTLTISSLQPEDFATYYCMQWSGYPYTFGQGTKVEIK

Result:
1: 1.52e+06; 2: 1.27e+06; 3: 1.91e+06; 4: 2.66e+06; 5: 1.63e+06

Required: kon, one value per binder below.
1. anti-IL-6 antibody, heavy chain T65K, G66D / light chain WT (antibody, human IgG1, V domains shown, Derived as m2; Engineered human IgG1) VH: EVQLVESGGGLVQPGGSLRLSCAASGFTFSPFAMSWVRQAPGKGLEWVAKISPGGSWTYYSDTVKDRFTFSLDTSKSTAYLQMNSLRAEDTAVYYCARQLWGYYALDIWGQGTLVTVSS VL: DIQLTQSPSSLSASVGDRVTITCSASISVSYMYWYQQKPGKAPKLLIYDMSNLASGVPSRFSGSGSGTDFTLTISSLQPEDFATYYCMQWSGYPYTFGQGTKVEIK
2. anti-IL-6 antibody, heavy chain S35E, G66D / light chain WT (antibody, human IgG1, V domains shown, Derived as m2; Engineered human IgG1) VH: EVQLVESGGGLVQPGGSLRLSCAASGFTFSPFAMEWVRQAPGKGLEWVAKISPGGSWTYYSDTVTDRFTFSLDTSKSTAYLQMNSLRAEDTAVYYCARQLWGYYALDIWGQGTLVTVSS VL: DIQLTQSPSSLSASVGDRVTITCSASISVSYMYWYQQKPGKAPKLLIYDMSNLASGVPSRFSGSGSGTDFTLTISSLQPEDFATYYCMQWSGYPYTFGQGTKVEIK
3. anti-IL-6 antibody, heavy chain T65W, G66D / light chain WT (antibody, human IgG1, V domains shown, Derived as m2; Engineered human IgG1) VH: EVQLVESGGGLVQPGGSLRLSCAASGFTFSPFAMSWVRQAPGKGLEWVAKISPGGSWTYYSDTVWDRFTFSLDTSKSTAYLQMNSLRAEDTAVYYCARQLWGYYALDIWGQGTLVTVSS VL: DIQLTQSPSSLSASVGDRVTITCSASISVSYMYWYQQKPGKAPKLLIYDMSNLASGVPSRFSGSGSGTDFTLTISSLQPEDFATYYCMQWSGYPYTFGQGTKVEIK
4. anti-IL-6 antibody, heavy chain I51G, G66D / light chain WT (antibody, human IgG1, V domains shown, Derived as m2; Engineered human IgG1) VH: EVQLVESGGGLVQPGGSLRLSCAASGFTFSPFAMSWVRQAPGKGLEWVAKGSPGGSWTYYSDTVTDRFTFSLDTSKSTAYLQMNSLRAEDTAVYYCARQLWGYYALDIWGQGTLVTVSS VL: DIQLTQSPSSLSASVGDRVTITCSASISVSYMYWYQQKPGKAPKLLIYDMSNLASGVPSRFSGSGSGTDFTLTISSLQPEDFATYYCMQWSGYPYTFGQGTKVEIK

Result:
1. 1.57e+06
2. 874000
3. 1.64e+06
4. 1.36e+06
